- System: Steryl-sulfatase (Homo sapiens, UniProt P08842)
- Sequence (P08842 whole entry): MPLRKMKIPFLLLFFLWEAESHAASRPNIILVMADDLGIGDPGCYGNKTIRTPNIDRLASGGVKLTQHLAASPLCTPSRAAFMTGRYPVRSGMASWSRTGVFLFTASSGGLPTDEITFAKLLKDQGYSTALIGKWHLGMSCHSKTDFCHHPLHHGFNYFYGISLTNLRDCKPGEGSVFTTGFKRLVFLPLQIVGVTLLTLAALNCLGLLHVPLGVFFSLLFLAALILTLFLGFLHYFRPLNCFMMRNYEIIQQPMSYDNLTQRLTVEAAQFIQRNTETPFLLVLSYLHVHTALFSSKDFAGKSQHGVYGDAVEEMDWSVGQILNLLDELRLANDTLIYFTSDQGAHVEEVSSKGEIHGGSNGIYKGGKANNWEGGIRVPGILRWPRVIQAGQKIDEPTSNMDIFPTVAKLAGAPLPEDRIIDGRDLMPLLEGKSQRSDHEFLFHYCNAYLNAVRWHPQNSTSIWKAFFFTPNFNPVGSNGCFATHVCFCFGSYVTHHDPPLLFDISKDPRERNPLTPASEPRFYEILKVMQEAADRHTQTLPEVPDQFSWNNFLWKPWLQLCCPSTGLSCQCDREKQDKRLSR
- Procedure Summary: Inhibition of human steroid sulfatase using 4-methylumbelliferyl sulfate substrate over 50 mins by Kitz-Wilson plot analysis
pKi: −log10 of the molar value.
Property Measured: pKi

Structure	Experimental Result
C[C@]12CC[C@@H]3c4ccc(O)c(C=O)c4CC[C@H]3[C@@H]1CC[C@@]2(O)Cc1ccccc1	7.07

###

- System: Steryl-sulfatase (Homo sapiens)
- Procedure Summary: Mixed type inhibition of human steroid sulfatase using 4-methylumbelliferyl sulfate substrate by Lineweaver-Burk plot analysis
Property Measured: Ki (µM)

Structure	Property Measured	Experimental Result
C[C@]12CC[C@@H]3c4ccc(O)c(F)c4CC[C@H]3[C@@H]1CC[C@@]2(O)Cc1ccccc1	Ki	0.09
